Reference source for all entries: patent US12180193B2

- system.under.test: BRAF G466V (Homo sapiens, UniProt P15056, G466V)
- Construct: expressed in transfected cells
- Sequence (P15056 whole entry G466V): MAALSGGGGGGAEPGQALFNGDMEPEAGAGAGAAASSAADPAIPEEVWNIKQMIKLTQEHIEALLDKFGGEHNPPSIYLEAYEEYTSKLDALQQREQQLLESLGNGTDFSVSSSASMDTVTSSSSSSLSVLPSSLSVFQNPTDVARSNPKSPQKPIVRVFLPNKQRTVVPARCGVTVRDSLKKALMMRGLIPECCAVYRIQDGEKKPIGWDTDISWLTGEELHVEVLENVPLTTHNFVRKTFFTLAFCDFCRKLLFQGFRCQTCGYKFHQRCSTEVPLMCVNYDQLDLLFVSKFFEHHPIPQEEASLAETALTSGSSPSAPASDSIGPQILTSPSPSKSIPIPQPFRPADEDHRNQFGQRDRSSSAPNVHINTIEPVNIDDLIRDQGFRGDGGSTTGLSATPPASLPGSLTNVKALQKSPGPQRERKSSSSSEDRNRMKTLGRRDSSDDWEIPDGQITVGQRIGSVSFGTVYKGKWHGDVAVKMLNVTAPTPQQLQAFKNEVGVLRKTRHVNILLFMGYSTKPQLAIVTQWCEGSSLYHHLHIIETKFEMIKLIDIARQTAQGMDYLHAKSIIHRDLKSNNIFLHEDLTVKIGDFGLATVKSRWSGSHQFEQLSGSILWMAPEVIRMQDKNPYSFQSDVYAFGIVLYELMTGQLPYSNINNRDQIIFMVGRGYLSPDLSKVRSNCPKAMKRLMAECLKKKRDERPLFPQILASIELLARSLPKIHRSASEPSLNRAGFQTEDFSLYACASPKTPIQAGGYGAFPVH
- assay.protocol: Cellular assay of target protein degradation, T-Rex 293 cells stably transfected with HA-BRAF G466V (HA immunofluorescence, high content imaging)
- Assay type: cell-based
- cond: half maximal degradation, T-Rex 293 HA-BRAF G466V; read-out: BRaf G466V DC50
readout.name: DC50

compound	DC50
O=C1CCC(N2Cc3cc(C4CCN(CC[C@H]5CCN(c6ccc(-c7cnc8[nH]cc(C(=O)c9c(F)ccc(NS(=O)(=O)N%10CC[C@@H](F)C%10)c9F)c8c7)cc6)C5)CC4)ccc3C2=O)C(=O)N1 (stereo partly drawn)	10 to 30 nM
O=C1CCC(N2Cc3cc(C4CCN(CC5CCN(c6ccc(-c7cnc8[nH]cc(C(=O)c9c(F)ccc(NS(=O)(=O)N%10CCC(F)(F)C%10)c9F)c8c7)cc6)CC5)CC4)ccc3C2=O)C(=O)N1 (stereo not drawn)	1 to 10 nM
O=C1CC[C@H](NC(=O)c2ccc(N3CC4(CN(CC5CCN(c6ccc(-c7cnc8[nH]cc(C(=O)c9c(F)ccc(NS(=O)(=O)N%10CC[C@@H](F)C%10)c9F)c8c7)cc6)CC5)C4)C3)cn2)C(=O)N1	1 to 10 nM
O=C1CC[C@H](N2Cc3cc(C4CCN(CC5CCN(c6ccc(-c7cnc8[nH]cc(C(=O)c9c(F)ccc(NS(=O)(=O)CCO)c9F)c8c7)cc6)CC5)CC4)ccc3C2=O)C(=O)N1	1 to 10 nM
COc1cc(N2CC3(CN(CC4CCN(c5ccc(-c6cnc7[nH]cc(C(=O)c8c(F)ccc(NS(=O)(=O)N9CC[C@@H](F)C9)c8F)c7c6)cc5)CC4)C3)C2)cc(F)c1C(=O)N[C@H]1CCC(=O)NC1=O	1 to 10 nM
COc1cc([C@@H](O)CCN2CCN(c3ccc(-c4cnc5[nH]cc(C(=O)c6c(F)ccc(NS(=O)(=O)N7CC[C@@H](F)C7)c6F)c5c4)cc3)CC2)cc2c1C(=O)N([C@H]1CCC(=O)NC1=O)C2 (stereo in doubt)	1 to 10 nM
O=C1CCC(N2Cc3cc(N4CCC(CN5CCC6(CCN(c7ccc(-c8cnc9[nH]cc(C(=O)c%10c(F)ccc(NS(=O)(=O)N%11CC[C@@H](F)C%11)c%10F)c9c8)cn7)CC6)C5)CC4)ccc3C2=O)C(=O)N1 (stereo partly drawn)	< 1 nM
O=C1CC[C@@H](N2Cc3cc(C[C@H](O)CN4CCC(c5ccc(-c6cnc7[nH]cc(C(=O)c8c(F)ccc(NS(=O)(=O)N9CC[C@@H](F)C9)c8F)c7c6)cc5)CC4)ccc3C2=O)C(=O)N1	< 1 nM

Switching to the query record.
Reported DC50 for C[C@H]1[C@H](F)CCN1S(=O)(=O)Nc1ccc(F)c(C(=O)c2c[nH]c3ncc(-c4ccc(N5CCC(CN6CCC(c7ccc8c(c7)CN(C7CCC(=O)NC7=O)C8=O)CC6)CC5)cc4)cc23)c1F (stereo partly drawn) was 1 to 10 nM

---

- system.under.test: BRAF V600E (Homo sapiens, UniProt P15056, V600E)
- Construct: expressed in transfected cells
- Sequence (P15056 whole entry V600E): as the sequence (P15056 whole entry G466V) above, with V466G, V600E counted along it
- assay.protocol: Cellular assay of target protein degradation, T-Rex 293 cells stably transfected with HA-BRAF_V600E (HA immunofluorescence, high content imaging)
- Format: cell-based
- cond: maximum degradation observed, T-Rex 293 HA-BRAF V600E
Each item that follows carries a reported Dmax.

molecule	reported
O=C1CCC(N2Cc3cc(N4CCN(c5cc(N6CCN(c7ccc(-c8cnc9[nH]cc(C(=O)c%10c(F)ccc(NS(=O)(=O)N%11CC[C@@H](F)C%11)c%10F)c9c8)cc7)CC6)ncn5)CC4)ccc3C2=O)C(=O)N1 (stereo partly drawn)	< 35%
COc1cc(N2CCC(CN3CC4(C3)CN(c3ccc(-c5cnc6[nH]cc(C(=O)c7c(F)ccc(NS(=O)(=O)N8CC[C@@H](F)C8)c7F)c6c5)cc3)C4)CC2)ccc1C(=O)N[C@H]1CCC(=O)NC1=O	35 to 70%
O=C1CC[C@H](N2Cc3cc([C@@H](O)CCN4CCC(c5ccc(-c6cnc7[nH]cc(C(=O)c8c(F)ccc(NS(=O)(=O)N9CC[C@@H](F)C9)c8F)c7c6)cc5)CC4)ccc3C2=O)C(=O)N1	35 to 70%
O=C1CCC(NC(=O)N2CCCc3c(N4CCN(CC5CCN(c6ccc(-c7cnc8[nH]cc(C(=O)c9c(F)ccc(NS(=O)(=O)N%10CC[C@@H](F)C%10)c9F)c8c7)cc6)CC5)CC4)ccnc32)C(=O)N1 (stereo partly drawn)	35 to 70%
O=C1CC[C@H](NC(=O)c2ccc(OCCCCN3CCN(c4ccc(-c5cnc6[nH]cc(C(=O)c7c(F)ccc(NS(=O)(=O)N8CC[C@@H](F)C8)c7F)c6c5)cc4)CC3)cc2F)C(=O)N1	> 70%
O=C1CC[C@@H](N2Cc3cc(N4CC(CN5CCN(C6(c7ncc(-c8cnc9[nH]cc(C(=O)c%10c(F)ccc(NS(=O)(=O)N%11CC[C@@H](F)C%11)c%10F)c9c8)cn7)CC6)CC5)C4)ccc3C2=O)C(=O)N1	35 to 70%
O=C1CC[C@H](N2Cc3cc(OC[C@@H](O)CN4CC5(C4)CN(c4ccc(-c6cnc7[nH]cc(C(=O)c8c(F)ccc(NS(=O)(=O)N9CC[C@@H](F)C9)c8F)c7c6)cc4)C5)ccc3C2=O)C(=O)N1	35 to 70%
O=C1CCC(N2Cc3cc(C4CCN(CC5CCN(c6ccc(-c7cnc8[nH]cc(C(=O)c9c(F)ccc(NS(=O)(=O)N%10CC[C@@H](F)C%10)c9C(F)(F)F)c8c7)cc6)CC5)CC4)ccc3C2=O)C(=O)N1 (stereo partly drawn)	35 to 70%

Reported Dmax for `O=C1CC[C@@H](N2Cc3cc(N4CCC(CN5CCC6(CCN(c7ccc(-c8cnc9[nH]cc(C(=O)c%10c(F)ccc(NS(=O)(=O)N%11CC[C@@H](F)C%11)c%10F)c9c8)cc7F)CC6)C5)CC4)ccc3C2=O)C(=O)N1` was 35 to 70%
